Origin of values: PubChem BioAssay (NCI)

# Tested on: SF-539 CNS
# experiment: NCI tumour cell line growth inhibition, 48 h
The compounds listed here are annotated with their TGI.

>  <compound>
Cc1cc(C)c2c(N)c3cccc(C)c3nc2n1

>  <TGI>
5.01 µM

$$$$
>  <compound>
COc1cc(/C=C/C(=O)OC[C@H](Br)[C@H](OC(C)=O)c2ccc3c(c2)OCO3)cc(OC)c1OC

>  <TGI>
> 100 µM

$$$$
>  <compound>
Cc1cc2c(cc1Br)C1(C)CCC(C)C1(C)O2 (stereo unspecified)

>  <TGI>
> 100 µM

$$$$
>  <compound>
CC1CC2(CCC1OCc1ccccc1)OCCO2 (stereo unspecified)

>  <TGI>
> 100 µM

$$$$
>  <compound>
CC(C)(NC1=NCCO1)c1ccccc1

>  <TGI>
> 100 µM

$$$$
>  <compound>
Cc1ccc2nc(Cl)c(/C=N/N3C(=O)/C(=C/c4ccc(N(C)C)cc4)N=C3c3ccccc3)cc2c1

>  <TGI>
52.4 µM

$$$$
